Sourced from PubChem BioAssay (NCI)

Test system: K-562 leukemia
Test: NCI-60 one-dose screen, 48 h (100 = growth as untreated, 0 = no growth, -100 = all killed)
Details: 10 µM unless noted
This is part of a sample that, as a whole, favours compounds with a hit. Of some 83,000 tested, about 20% had one in any assay.
Label rule, in plain words: growth of 10% and up is 1.0, under 10% is 0.0.

Recorded results for 4 compounds are shown here.
COc1cc2c(c(OC)c1OC)C(=O)CC(c1cccc(NC(=O)c3ccc(C#N)cc3)c1)O2 (stereo not given)    1.0
CN(CCCNC(=O)Cc1ccc2ccc3cccc4ccc1c2c34)CCCNc1cc(-c2ccc3ccccc3c2)nc2ccccc12    0.0
Nc1nc2c(c3ncccc13)C(c1cccc(Cl)c1)Cc1ncccc1-2 (stereo not given)    1.0
O=S(=O)(NCCNc1nccc(-c2c(-c3ccc(F)c(O)c3)nc3sccn23)n1)c1ccc(F)cc1    1.0

Pending compound:
Exercise: Is growth at least 10%? Consider O=C(/C=C/c1cccc(Cl)c1Cl)Nc1ncc(Cc2ccccc2Cl)s1
Key: 1.0
